Target: T1, cyno TfR extracellular domain (analogous construct to human TfR ecd) (cynomolgus monkey, UniProt Q5RDH6 87-760 (Pongo abelii entry))
T1 construct: also called cynoTfR ecd
T1 chain: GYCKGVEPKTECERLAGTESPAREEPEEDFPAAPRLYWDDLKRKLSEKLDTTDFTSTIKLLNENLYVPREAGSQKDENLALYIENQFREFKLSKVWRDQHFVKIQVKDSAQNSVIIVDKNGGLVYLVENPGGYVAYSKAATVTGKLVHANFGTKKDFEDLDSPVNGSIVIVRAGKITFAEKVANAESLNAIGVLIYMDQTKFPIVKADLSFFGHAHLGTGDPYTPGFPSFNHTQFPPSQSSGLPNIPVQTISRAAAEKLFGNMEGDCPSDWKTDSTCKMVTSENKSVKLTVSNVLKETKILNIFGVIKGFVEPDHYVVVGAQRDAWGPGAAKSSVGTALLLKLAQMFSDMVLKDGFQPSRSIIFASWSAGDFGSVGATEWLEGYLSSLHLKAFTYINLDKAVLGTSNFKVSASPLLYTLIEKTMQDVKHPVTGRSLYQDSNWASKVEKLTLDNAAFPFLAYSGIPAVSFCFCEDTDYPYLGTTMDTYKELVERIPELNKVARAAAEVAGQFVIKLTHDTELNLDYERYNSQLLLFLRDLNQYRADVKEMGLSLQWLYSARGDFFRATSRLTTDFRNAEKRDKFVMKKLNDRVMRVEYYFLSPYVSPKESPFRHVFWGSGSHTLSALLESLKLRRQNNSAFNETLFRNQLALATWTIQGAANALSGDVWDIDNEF
Test: SPR, IgG
Listed binders paired with reported Kd
READOUT KIND: Kd (nM)

# BINDER, MEASURED
records = [
    ("8A2 (antibody, V domains shown, Mouse hybridoma antibody; also called clone 8A2) VH: QVQLQQSGPELVRPGVSVKISCKGSGYTFTDYGMHWVKQSHAKSLEWIGVISPYSGRTNYNQNFKGKATMTVDKSSSTAYLELARLTSEDSAIYYCARGLSGNYVVDYWGQGTSVTVSS VL: DIVLTQSPASLAVSLGQRATISCRASESVDSYGNSFMHWYQQKPGQPPKLLIYRASNLESGIPARFSGSGSRTDFTLTINPVEADDVATYYCQQSNEGPPTFGGGTKLEIK", 0.904),
    ("15G11 (antibody, V domains shown, Mouse hybridoma antibody; also called clone 15G11) VH: QVQLQQPGAELVKPGASVKLSCKASGYTFTSYWMHWVKQRPGQGLEWIGEINPTNGRTNYIEKFKSKATLTVDKSSSTAYMQLSSLTSEDSAVYYCARGTRAYHYWGQGTSVTVSS VL: DIQMTQSPASLSVSVGETVTITCRASDNLYSNLAWYQQKQGKSPQLLVYDATNLADGVPSRFSGSGSGTQYSLKINSLQSEDFGTYYCQHFWGTPLTFGAGTKLELK", 2.6),
    ("16G4 (antibody, V domains shown, Mouse hybridoma antibody; also called clone 16G4) VH: QVQLQQPGAELVKPGASVKLSCKASGYTFTSYWMHWVKQRPGQGLEWIGEINPSNGRTNYNETFKSKATLTVDKSSSTAYMQLSSLTSEDSAVYYCARGTRAYHYWGQGTSVTVSS VL: DIQMTQSPASLSVSVGETVTITCRASDNIYSNLAWYQQKQGKSPQLLVYAVTNLADGVPSRFSGSGSGTQYSLKINSLQSEDFGSYYCQHFWGTPLTFGAGTKLELK", 22.4),
]
